List of cytotoxicity at 10 µM values.
test: Toxicity liver stage against HepG2, at 10uM; type: cell-based; parameters: test concentration 10 uM, cell line HepG2-A16-CD81EGFP; settings: human, HepG2-A16-CD81EGFP cells; read-out: INHIBITION
I only need the number, in %, no unit after it.

Entry under review: `O=C([C@@H]1C[C@@H]2CCN(C3CCOCC3)C[C@H]2O1)N1CCOCC1` . Reported cytotoxicity at 10 µM?
0.763

Entry under review: `CC(C)CCC(=O)NCCc1ccn(-c2ccccc2)n1` . Reported cytotoxicity at 10 µM?
-14.6

Entry under review: `c1ccc(NC[C@@H]2CCC[C@@H]3CN(Cc4csnn4)C[C@@H]32)nc1` . Reported cytotoxicity at 10 µM?
-114

Entry under review: CC(C)c1ccc(CN2CCC3(CCCN(c4nncs4)C3)C2)cc1 (stereo unspecified) . Reported cytotoxicity at 10 µM?
-1.15

Entry under review: `CO[C@H]1CNC[C@@H]1NC(=O)c1cc(C)nc2c(C)c(C)ccc12` . Reported cytotoxicity at 10 µM?
0.936

Entry under review: `CC(C)(C)OC(=O)N1CCN(S(=O)(=O)CCCC#N)C2(CCCCC2)C1` . Reported cytotoxicity at 10 µM?
-6.1

Entry under review: Cc1cc(CN2CCC(N(C)Cc3noc(C4CC4)n3)C2)on1 (stereo unspecified) . Reported cytotoxicity at 10 µM?
1.54

Entry under review: `CC(C)CN(CCc1ccccc1)Cc1nc2c(cnn2C)c(=O)[nH]1` . Reported cytotoxicity at 10 µM?
-6.94

Entry under review: `CC(=O)N(C)CC(=O)NC1(c2ccc(Br)cc2)CC1` . Reported cytotoxicity at 10 µM?
-10.7

Entry under review: CC(NC(=O)Nc1nccs1)C(=O)NC1CCCC1 (stereo unspecified) . Reported cytotoxicity at 10 µM?
1.87

Entry under review: `COCCN1CCC2(CC1)CN(C(=O)N(C)C)c1ccc(C)cc12` . Reported cytotoxicity at 10 µM?
7.74

----------
List of cytotoxicity at 10 µM values.
assay: Toxicity liver stage against HepG2, at 10uM; assay type: cell-based; set-up: test concentration 10 uM, cell line HepG2-A16-CD81EGFP; details: human, HepG2-A16-CD81EGFP cells; read-out: INHIBITION
I only need the number, in %, no unit after it.

Use these answered entries as a reference point.
COc1c(F)cc(NCC(=O)NC(C)(C#N)C2CC2)cc1F (configuration not stated) : -3.82
c1ccc(-c2cc(CC3(NCc4ncc[nH]4)COC3)no2)cc1 : 2.05
COc1cc(N2C[C@H]3CN(CC(=O)N(C)C)C(=O)[C@H]3C2)ncn1 : 96.6
CC(C)(CO)CNC(=O)c1ccnn1-c1ccc2ccccn12 : 15.8
COC(=O)C(NC(=O)C1CCC1)c1cc(F)ccc1F (configuration not stated) : 5.54
O=C(Cc1ccccc1)N1CCC2(CCN2Cc2ccc(F)cc2)C1 (configuration not stated) : 2.17
CCNC(=O)[C@@H]1CCCN1[C@@H](C(=O)NC)c1ccccc1OC : -4.51
Cc1cc2c(=O)n3c(nc2s1)CCN(C(=O)c1nn(C)cc1Cl)CC3 : 16.6

Entry under review: `CC(=O)NCc1ccc(-n2ccnc2C)nc1` . Reported cytotoxicity at 10 µM?
-6.49

Entry under review: Fc1cccc(C2CCCN2Cc2nnnn2C2CC2)c1 (configuration not stated) . Reported cytotoxicity at 10 µM?
2.8

Entry under review: `Cc1nc(N2CCCC2)nc2c1CCN(Cc1ccsc1)CC2` . Reported cytotoxicity at 10 µM?
-106

Entry under review: `Cc1cccc(Cn2cc(C)c(N)n2)c1` . Reported cytotoxicity at 10 µM?
-4.14

Entry under review: `c1ccc(CN2CCCC2)c(CNc2cncc3nnnn23)c1` . Reported cytotoxicity at 10 µM?
0.351

Entry under review: `Cc1nn2c(NC(=O)CSc3nccn3C)csc2nc1=O` . Reported cytotoxicity at 10 µM?
9.71

Entry under review: COCc1cnc2n1CCN(C(=O)c1oc3ccccc3c1C)C2C (configuration not stated) . Reported cytotoxicity at 10 µM?
-104
